Collected cell viability values appear next to each entry.
Tested on: HL-60
assay method text: cell viability (% survival relative to DMSO control, bortezomib = 0%); higher = less cytotoxic
condition label: 1 nM; 72 h
Give a bare numeral; the unit % is implied.

CC(/C=C1\SC(=S)N(CC(=O)O)C1=O)=C\c1ccccc1 [Epalrestat] | 120
COc1cc2c(NC3CCN(C)CC3)nc(N3CCCN(C)CC3)nc2cc1OCCCN(C)C [UNC0224] | 92.3
CCOC(=O)[C@@]1(CCCCCCOc2ccc(Cl)cc2)CO1 [Etomoxir] | 77.7
O=C(COc1ccc(C(=O)c2ccccc2)cc1)NC1CCN(Cc2ccccc2)CC1 [AdipoRon] | 102
Nc1ncnc2c1ncn2[C@@H]1O[C@H](CSCC[C@H](N)C(=O)O)[C@@H](O)[C@H]1O [S-Adenosyl Homocysteine] | 103

[Q] Determine from records and report cell viability for CCOc1ccc(Cc2cc([C@@H]3O[C@H](CO)[C@@H](O)[C@H](O)[C@H]3O)ccc2Cl)cc1 [Dapagliflozin]
[A] 101

[Q] Determine from records and report cell viability for CC(C)C[C@H](NC(=O)[C@@H](O)[C@H](N)Cc1ccccc1)C(=O)O [Ubenimex]
[A] 98.3

[Q] Determine from records and report cell viability for N[C@](CCCCB(O)O)(CCN1CCCCC1)C(=O)O [Arginase inhibitor 1]
[A] 131

[Q] Determine from records and report cell viability for O=C(O)CC[C@H](NC(=O)c1ccc([N+](=O)[O-])cc1)C(=O)O [(S)-2-(4-Nitrobenzamido)pentanedioic acid]
[A] 78

[Q] Determine from records and report cell viability for C1CCc2nnc(C34CC5CC(CC(C5)C3)C4)n2CC1 [MERCK-544]
[A] 94.7
